// values below are reported IC50
- Test system: Phytophthora infestans
- test: microbe, parasite or virus in culture
- Assay type: cell-based
- details: Phytophthora infestans, read-out: Phytophthora infestans (spore germination) IC 50, spore germination
propertyName: IC50 (µg/mL)

• CCCCCCCCCCCCC(=O)/C=C/C(=O)[O-].[K+] [drawing 9] = 0.018
• CCCCCC(=O)/C=C/C(=O)O [drawing 5] = 0.002
